# Test system: UO-31 renal
# methodNotes: NCI tumour cell line growth inhibition, 48 h
Each item that follows carries a reported TGI.

compound	TGI
COc1cc(/C=C2/C[C@H]3[C@@H]4CC=C5C[C@@H](OC(C)=O)CC[C@]5(C)[C@H]4CC[C@]3(C)NC2=O)cc(OC)c1OC	50.2 µM
CC1(O)CC(=O)c2c(cc3ccc(-c4c5c(c(O)c6c(O)cccc46)C(=O)CC(C)(O)C5)c(O)c3c2O)C1 (stereo not drawn)	0.726 µM
COc1ccc2nc3cc([N+](=O)[O-])ccc3c(Nc3ccc(S(=O)(=O)NC(C)=O)cc3)c2c1	> 100 µM
C(CCCCc1nnc(N2CCCCC2)o1)CCCc1nnc(N2CCCCC2)o1	> 100 µM
CCOC(=O)c1nc2ccc(C(F)(F)F)cc2nc1Oc1cc(OC)cc(OC)c1	> 100 µM

stdin: So what does the record say about TGI for CC1(C)CC(=O)c2c(nc3ccc4ccccc4c3c2-c2ccc(NC(=O)CCCCCCCCC(=O)Nc3ccc(-c4c5c(nc6ccc7ccccc7c46)CC(C)(C)CC5=O)cc3)cc2)C1 ?
stdout: > 100 µM

stdin: Next compound: O=C(Nc1ccccc1)N(CCCCN(Cc1ccccc1)C(=O)Nc1ccccc1)Cc1ccccc1
stdout: > 100 µM

stdin: Next compound: O=C(O)c1ccn(-c2cccc(-n3ccc(C(=O)O)n3)n2)n1
stdout: > 100 µM

---

# System: U251 CNS
Choose the fitting class; nothing outside 1 (yes) for active, 0 (no) for inactive is accepted.

molecule	groupLabel
O=C(/C=C/c1ccc([N+](=O)[O-])cc1)c1ccc2c3c(cccc13)CC2	0 (no)
CC(C)(O)CC(=O)NCCn1ccc2ncnc(Nc3ccc(Oc4cccc(C(F)(F)F)c4)c(Cl)c3)c21	0 (no)
NC(=S)N/N=C/c1ncccc1N	0 (no)
C[C@@H]1CC[C@H]2C(C(O)CCCCC(O)C3=C(C(F)(F)F)O[C@@H]4O[C@@]5(C)CC[C@H]6[C@H](C)CC[C@@H]3[C@@]46OO5)=C(C(F)(F)F)O[C@@H]3O[C@@]4(C)CC[C@@H]1[C@]32OO4 (some centres undefined)	0 (no)
CCc1ccc(NC(=O)COC(=O)c2cc([N+](=O)[O-])ccc2Sc2nnnn2C)cc1	0 (no)

stdin: For this molecule, state the assay outcome: COc1cc(C(=O)NC2CCN(C)CC2)c(F)cc1Nc1ncc2c(n1)N(C1CCCC1)CC(F)(F)C(=O)N2C
stdout: 1 (yes)

stdin: Next molecule: COc1ccc(/C=C2\CCCC3=C2NC(N)=NC3c2ccc(OC)c(OC)c2)cc1OC (centres undefined)
stdout: 0 (no)

stdin: Next molecule: Nc1[nH]nc2nc(-c3cccs3)cc(C(F)(F)F)c12
stdout: 0 (no)

stdin: Next molecule: C1CN(SSN2CCOCC2)CCO1
stdout: 0 (no)

---

# System: HOP-92 NSCLC
# methodNotes: NCI tumour cell line growth inhibition, 48 h
Each item that follows carries a reported GI50.

compound	obsValue
CCOc1ccccc1N=Nc1c(C)[nH]n(-c2nc(-c3ccccc3)cs2)c1=O	21.9 µM

stdin: So what does the record say about GI50 for O=C(NN1C(=O)CSC12CCCC2)c1[nH]c2ccc(Br)cc2c1-c1ccccc1 ?
stdout: 33.8 µM

stdin: Next compound: COc1ccc(C2SC(C)C(=O)N2NC(=O)C(O)c2ccccc2)cc1OC (centres undefined)
stdout: > 100 µM

stdin: Next compound: O=C(Nc1cccc(NC(=O)Nc2cc(C(F)(F)F)ccc2Cl)c1)Nc1cc(C(F)(F)F)ccc1Cl
stdout: 1.99 µM

stdin: Next compound: C[CH2][Sn]([CH2]C)([O]C(=O)C(OC(C)=O)c1ccccc1)[O]C(=O)C(OC(C)=O)c1ccccc1 (centres undefined)
stdout: 18.6 µM

stdin: Next compound: Cc1ccc(S(=O)(=O)Nc2cccc3[nH]c(C(F)(F)F)nc23)cc1
stdout: 0.957 µM

stdin: Next compound: COc1ccc(OC)c(-c2c(C#N)c(N)nc(N3CCOCC3)c2C#N)c1
stdout: 82.5 µM

stdin: Next compound: Nc1[nH]nc2nc(-c3cccs3)cc(C(F)(F)F)c12
stdout: > 14.1 µM

stdin: Next compound: CN(C)c1ccc2c(c1)OC(N)=C(C#N)C2c1ccc2c(c1)CCO2 (centres undefined)
stdout: 5.69 µM

---

Each item that follows carries a reported TGI.
# System: SK-MEL-28 melanoma
# methodNotes: NCI tumour cell line growth inhibition, 48 h
Please give a number only; it is taken to be in µM.

Observe how each entry below is paired with its result.
compound	TGI, µM
O=C(Nc1cccc(NC(=O)Nc2cc(C(F)(F)F)ccc2Cl)c1)Nc1cc(C(F)(F)F)ccc1Cl	15.4
COC(=O)[C@H]1CO[C@H]2C/C(C)=C/CC/C(C)=C/CC[C@@]3(C)O[C@@H]3C[C@H]21	34.9

stdin: So what does the record say about TGI for OC(CCNCc1ccccc1)c1ccc2ccccc2c1 (stereo not given) ?
stdout: 34

stdin: Next compound: COc1ccc(-c2cc(-c3ccc(Nc4ccnc5cc(Cl)ccc45)cc3)[nH]c(=O)c2C#N)c2ccccc12
stdout: 42.3

---

Each item that follows carries a reported TGI.
# Tested on: UACC-257 melanoma
# methodNotes: NCI tumour cell line growth inhibition, 48 h

Observe how each entry below is paired with its result.
compound	TGI
Cc1ccc(CNc2c3ccccc3nc3cc(NC(=O)CCN4CCCC4)ccc23)cc1	3.27 µM
COC(=O)c1c(O)ccc2c1c1c(n2Cc2cccc(C)c2)C(=O)c2ccccc2C1=O	31.2 µM
COC(=O)[C@H]1CO[C@H]2C/C(C)=C/CC/C(C)=C/CC[C@@]3(C)O[C@@H]3C[C@H]21	> 50 µM

stdin: Write down the reported TGI of CC(=O)C1C(=O)C(=O)N(c2ccccc2C(C)C)C1=O (stereo not given) , test system: UACC-257 melanoma.
stdout: > 100 µM

stdin: Next compound: CSC1=N/C(=C\c2ccco2)C(=O)N1CN1CCOCC1
stdout: > 100 µM

stdin: Next compound: CC1=C(CO)C(=O)O[C@@H]([C@@H](C)[C@H]2CC[C@H]3[C@@H]4C[C@@H](O)[C@@]5(O)CC=CC(=O)[C@]5(C)[C@H]4CC[C@]23C)C1
stdout: > 100 µM

stdin: Next compound: CC1(C)CC(=O)c2c(nc3ccc4ccccc4c3c2-c2ccc(NC(=O)CCCCCCCCC(=O)Nc3ccc(-c4c5c(nc6ccc7ccccc7c46)CC(C)(C)CC5=O)cc3)cc2)C1
stdout: > 100 µM

stdin: Next compound: CCOP(=O)(OCC)C1CC(n2cc(C)c(=O)[nH]c2=O)OC1CO (stereo not given)
stdout: > 100 µM

stdin: Next compound: CN(/N=C/c1cccc2cccnc12)c1ccccc1
stdout: > 100 µM

stdin: Next compound: c1cn(C23C4C5C6C4C2C6C53)cn1 (stereo not given)
stdout: > 100 µM

---

# Tested on: UACC-257 melanoma
# methodNotes: NCI tumour cell line growth inhibition, 48 h
measurementLabel: TGI

compound	subjectOfTest	TGI
O=[N+]([O-])c1cccc([As]=[As]c2cccc([N+](=O)[O-])c2)c1 (stereo not given)	UACC-257 melanoma	0.252 µM
COC(=O)C1=C(c2cc(OC)c(OC)c(OC)c2)OC(c2ccc(OC)c(OC)c2)C1 (stereo not given)	UACC-257 melanoma	> 100 µM

stdin: So what does the record say about TGI for CC1(C)CC(C)(C)C1=NNC(N)=O ?
stdout: > 100 µM

stdin: Next compound: COc1ccc(C(SC2C(O)C(CO)OC2n2ccc(N)nc2=O)(c2ccccc2)c2ccc(OC)cc2)cc1 (stereo not given)
stdout: 41.7 µM

stdin: Next compound: COc1ccc(C2SC(C)C(=O)N2NC(=O)C(O)c2ccccc2)cc1OC (stereo not given)
stdout: > 100 µM

stdin: Next compound: Cc1ccc2c(c1C)C(=O)/C(=C/c1ccccc1C(=O)O)C2
stdout: > 100 µM

stdin: Next compound: O=C1C(=O)c2ccccc2C(O)=C1CCCc1ccc(Oc2ccccc2)cc1
stdout: 23.9 µM

stdin: Next compound: Cc1cn(Cc2cnnn2CC2OC(n3cc(C)c(=O)[nH]c3=O)CC2O)c(=O)[nH]c1=O (stereo not given)
stdout: > 100 µM

stdin: Next compound: CCCCCC(C)SC1(C(=O)OC)CC(OC(C)=O)C(NC(C)=O)C([C@H](OC(C)=O)[C@@H](COC(C)=O)OC(C)=O)O1 (stereo not given in full)
stdout: > 100 µM

stdin: Next compound: COc1ccc2nc3cc([N+](=O)[O-])ccc3c(Nc3ccc(S(=O)(=O)NC(C)=O)cc3)c2c1
stdout: > 100 µM

stdin: Next compound: COc1ccc(C)cc1Nc1nnc(-c2ccccc2N)s1
stdout: > 100 µM

stdin: Next compound: Oc1c([Si](c2ccccc2)(c2ccccc2)c2ccccc2)cc2ccccc2c1-c1c(O)c([Si](c2ccccc2)(c2ccccc2)c2ccccc2)cc2ccccc12
stdout: > 100 µM

stdin: Next compound: Nc1ccccc1CC(O)C(=O)O (stereo not given)
stdout: > 100 µM

stdin: Next compound: O=c1c2cc(I)ccc2nc(-c2cccs2)n1-c1ccc(O)cc1
stdout: 22.1 µM

stdin: Next compound: COC(=O)C1=CC2C(=O)OC1CC2C#N (stereo not given)
stdout: > 100 µM

stdin: Next compound: COc1cc(/C=C2/C[C@H]3[C@@H]4CC=C5C[C@@H](OC(C)=O)CC[C@]5(C)[C@H]4CC[C@]3(C)NC2=O)cc(OC)c1OC
stdout: 97.1 µM

stdin: Next compound: C=C(C)C(O)C(O)c1c(OC)ccc2ccc(=O)oc12 (stereo not given)
stdout: > 100 µM

stdin: Next compound: c1ccc2c(c1)CCc1c-2n(CCN2CCOCC2)c2ccccc12
stdout: > 100 µM

stdin: Next compound: O=C(Nc1nc2ccccc2s1)c1cc([N+](=O)[O-])ccc1Cl
stdout: > 100 µM

stdin: Next compound: COc1ccc(C(C#N)Cc2cc(OC)c(OC)c(OC)c2)cc1 (stereo not given)
stdout: > 100 µM

Measured values drawn from PubChem BioAssay (NCI) for this set.
